Tested on: CEM cells HIV-1 protection, formazan growth assay
Assay: NCI AIDS Antiviral Assay
Settings: measured here: growth of uninfected CEM cells
pIC50: −log10 of the molar value.
quantity: pIC50

Some compounds with known pIC50 results, for comparison:
compound: CC(=O)N/N=C1\NN(C(C)=O)C2(S1)C(=O)Nc1ccccc12 (stereo not drawn)
quantity: pIC50
reported-measurement: < 3.70
--
compound: CC[N+](CC)(CCNCC(N)=O)CC(N)=O
quantity: pIC50
reported-measurement: < 3.70

Shifting focus to the compound that follows.
Entry COc1ccc(-c2cc(-c3ccccc3)c(C#N)c(=O)n2C2OC(COC(C)=O)C(OC(C)=O)C(OC(C)=O)C2OC(C)=O)cc1 (stereo not drawn) : reported pIC50 = ?
< 4.80
